This collection of values is drawn from the supplement of paper PMC6757056.

B1: library; a variant is named by its letters at N, in order (parent)
chain: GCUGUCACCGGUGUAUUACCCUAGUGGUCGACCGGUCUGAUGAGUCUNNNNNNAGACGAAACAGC

# Variants of: B1
# measurement description: FACS-Seq fitted mean relative fluorescence mCherry/BFP with ligand (log10 relative fluorescence); ligand: hypoxanthine (xanthine aptamer); ligand concentration (+) FACS-Seq: 5 mM; higher = higher reporter protein expression
# measurement context: HEK293T, ligand present: yes
Label scheme for FACS-Seq fitted mean (log10): one (below 0.4), two (0.4 to below 0.5), three (0.5 or more)

GCUGUCACCGGUGUAUUACCCUAGUGGUCGACCGGUCUGAUGAGUCUAAGCCGAGACGAAACAGC two

[in] Exam item: assign GCUGUCACCGGUGUAUUACCCUAGUGGUCGACCGGUCUGAUGAGUCUGGGACGAGACGAAACAGC to the correct category.
[out] three
